Biological target: T1, human FcRn/b2M (human, UniProt P61769 21-119, biotinylated)
T1 construct: bought recombinant biotinylated protein (ACRO FCM-H82W4 or Immunitrack ITF01); also called hFcRn; hFcRn/hb2M
T1 sequence (chain, as listed by the source limits assumed, chain 1 of 2): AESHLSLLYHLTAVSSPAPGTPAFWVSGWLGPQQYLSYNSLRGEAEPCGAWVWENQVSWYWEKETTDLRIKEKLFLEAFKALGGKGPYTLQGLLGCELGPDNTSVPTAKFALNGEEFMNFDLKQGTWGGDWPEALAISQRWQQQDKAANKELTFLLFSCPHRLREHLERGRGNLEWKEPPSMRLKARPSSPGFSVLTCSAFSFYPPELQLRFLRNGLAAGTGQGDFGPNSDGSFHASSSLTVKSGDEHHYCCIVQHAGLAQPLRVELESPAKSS
T1 sequence (P61769 21-119 limits assumed, chain 2 of 2): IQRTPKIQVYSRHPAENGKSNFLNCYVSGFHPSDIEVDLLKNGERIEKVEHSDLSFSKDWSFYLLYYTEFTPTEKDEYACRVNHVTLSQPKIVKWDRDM
Assay: SPR off-rate; pH 7.4 vs pH 6.0;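 further: surface plasmon resonance with diluted periplasmic extracts flowed over ligand surfaces, 120 s association and 600–3600 s dissociation at 25 °C, running buffer containing 150 mM NaCl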

binder	kd ratio pH 7.4/6.0
T0263018B11 S52D (VHH, name in Kabat numbering, FLAG3-His6 tagged) VHH: EVQLVESGGGVVQPGGSLRLSCAASGFTFSSYAMYWVRQAPGKGLEWVSAIDSGGGSTDYADSVKGRFTISRDNSKNTLYLQMNSLRPEDTALYYCAADTLYTSLTWYSYWGQGTLVTVSS	32
T0263018B11 G26E (VHH, name in Kabat numbering, FLAG3-His6 tagged) VHH: EVQLVESGGGVVQPGGSLRLSCAASEFTFSSYAMYWVRQAPGKGLEWVSAISSGGGSTDYADSVKGRFTISRDNSKNTLYLQMNSLRPEDTALYYCAADTLYTSLTWYSYWGQGTLVTVSS	44
T0263018B11 G26N (VHH, name in Kabat numbering, FLAG3-His6 tagged) VHH: EVQLVESGGGVVQPGGSLRLSCAASNFTFSSYAMYWVRQAPGKGLEWVSAISSGGGSTDYADSVKGRFTISRDNSKNTLYLQMNSLRPEDTALYYCAADTLYTSLTWYSYWGQGTLVTVSS	53
T0263018B11 S100K (VHH, name in Kabat numbering, FLAG3-His6 tagged) VHH: EVQLVESGGGVVQPGGSLRLSCAASGFTFSSYAMYWVRQAPGKGLEWVSAISSGGGSTDYADSVKGRFTISRDNSKNTLYLQMNSLRPEDTALYYCAADTLYTKLTWYSYWGQGTLVTVSS	54
